- System: Cathepsin B (Homo sapiens)
- Assay details: Inhibition of recombinant cathepsin B (unknown origin) endopeptidase activity expressed in Escherichia coli assessed as residual activity at 100 uM using Z-RR-AMC as substrate preincubated for 30 mins under shaking in presence of 5 mM cysteine followed by substrate addition relative to control
Counter-ions that a name gives are not always drawn.
Measurement name: Activity (%)
Give bare numbers, in %.

Molecule: O=c1[nH]sc2ccccc12
Measurement units: %
Activity: 100

List Activity for every entry below, keeping the order given.
1. O=C(CCl)Nc1cc(C(F)(F)F)cc(C(F)(F)F)c1
2. S=C=NCc1ccccc1 [BENZYL ISOTHIOCYANATE]

Output line:
75
75

List Activity for every entry below, keeping the order given.
1. COC(=O)/C=C/C(=O)OC [DIMETHYL FUMARATE]
2. O=C(CCl)Nc1ccccc1
3. COc1ccc(N=C=S)cc1

Output line:
[100, 100, 100]

List Activity for every entry below, keeping the order given.
1. CCOC(=O)C#Cc1ccccc1
2. Cc1ccc(S)cc1
3. N#C/C=C/C(F)(F)F
4. O=C(CCl)c1ccccc1 [PHENACYL CHLORIDE]
5. CCOC(=O)C#CC(F)(F)F
6. FC(F)(F)c1cccc(N=C=S)c1

Output line:
1. 85
2. 100
3. 100
4. 63
5. 100
6. 100

----------
- Assay details: Inhibition of recombinant cathepsin X (unknown origin) expressed in Pichia pastoris assessed as residual activity at 100 uM using Abz-Fek(Dnp)-OH as substrate preincubated for 30 mins under shaking in presence of 5 mM cysteine followed by substrate addition relative to control
- Test settings: Homo sapiens
Measurement name: Activity (%)
Give bare numbers, in %.

Molecule: C/C=C/C#N
Activity, %: 90

List Activity for every entry below, keeping the order given.
1. N#C/C=C/C(F)(F)F
2. CCOC(=O)C#CC(F)(F)F
3. O=C(CCl)Nc1ccccc1
4. COc1ccccc1C(=O)CBr
5. O=C(CCl)c1ccccc1 [PHENACYL CHLORIDE]

Output line:
1: 86; 2: 99; 3: 99; 4: 74; 5: 86

List Activity for every entry below, keeping the order given.
1. O=C1C=CC(=O)N1Cc1ccccc1
2. O=C1C=CC(=O)N1C1CCCCC1
3. C/C=N/Nc1cc2ccccc2cn1
4. C=CS(=O)(=O)c1ccccc1 [(ETHENYLSULFONYL)BENZENE]
5. O=C(CCl)Nc1cc(C(F)(F)F)cc(C(F)(F)F)c1
6. COc1cc(NC(=O)CCl)cc(OC)c1
7. FC(F)(F)c1cccc(N=C=S)c1

Output line:
1: 96; 2: 96; 3: 79; 4: 93; 5: 96; 6: 84; 7: 87

----------
I'd be grateful if you could share measured Activity for these entries.
- System: UniProt P07858
- Assay details: Inhibition of recombinant cathepsin B (unknown origin) exopeptidase activity expressed in Escherichia coli assessed as residual activity at 100 uM using Abz-GIVRAK(Dnp)-OH as substrate preincubated for 30 mins under shaking in presence of 5 mM cysteine followed by substrate addition relative to control
One number for each entry, in %.

Reference set (10 entries):
Molecule: O=C(CBr)c1ccccc1
Measurement units: %
Activity: 27
//
Molecule: CCOC(=O)C#CC(F)(F)F
Measurement units: %
Activity: 89
//
Molecule: C/C=N/Nc1cc2ccccc2cn1
Measurement units: %
Activity: 100
//
Molecule: N#C/C=C/C(F)(F)F
Measurement units: %
Activity: 88
//
Molecule: COc1ccccc1C(=O)CBr
Measurement units: %
Activity: 55
//
Molecule: C/C=C/C(=O)OC
Measurement units: %
Activity: 97
//
Molecule: O=C1C=CC(=O)N1C1CCCCC1
Measurement units: %
Activity: 89
//
Molecule: COc1cc(NC(=O)CCl)cc(OC)c1
Measurement units: %
Activity: 87
//
Molecule: CC#CC(=O)OCC
Measurement units: %
Activity: 84
//
Molecule: Cc1ccc(S)cc1
Measurement units: %
Activity: 67

List Activity for every entry below, keeping the order given.
1. O=c1[nH]sc2ccccc12
2. C=CS(=O)(=O)c1ccccc1 [(ETHENYLSULFONYL)BENZENE]

Output line:
[96, 87]

----------
- System: Cathepsin B (Homo sapiens) (UniProt P07858)
- Assay details: Inhibition of recombinant cathepsin B (unknown origin) endopeptidase activity expressed in Escherichia coli assessed as residual activity at 100 uM using Z-RR-AMC as substrate preincubated for 30 mins under shaking in presence of 5 mM cysteine followed by substrate addition relative to control
I'd be grateful if you could share measured Activity for these entries.
Hi, when you answer, please include the unit after the number. Thanks!

Compound: COc1cc(NC(=O)CCl)cc(OC)c1
Observed result: 90%

Compound: C/C=C/C(=O)OC
Observed result: 100%

Compound: C/C=N/Nc1cc2ccccc2cn1
Observed result: 100%

Compound: O=C1C=CC(=O)N1Cc1ccccc1
Observed result: 100%

Compound: C=CS(=O)(=O)c1ccccc1 [(ETHENYLSULFONYL)BENZENE]
Observed result: 100%

Compound: S=C=Nc1ccccc1 [PHENYLISOTHIOCYANATE]
Observed result: 100%

List Activity for every entry below, keeping the order given.
1. O=C(CCl)N1CCC(Cc2ccccc2)CC1
2. O=C1C=CC(=O)N1C1CCCCC1
3. COc1ccccc1C(=O)CBr
4. C/C=C/C#N

Output line:
1. 78%
2. 96%
3. 90%
4. 100%
